target or system: T1, human GCP-2 (human, UniProt P80162 38-114, limits assumed)
T1 sequence (looked up): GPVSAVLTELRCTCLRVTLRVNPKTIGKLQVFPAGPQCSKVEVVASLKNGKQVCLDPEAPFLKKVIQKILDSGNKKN
protocol notes: cell-based or functional assay
observable: FLIPR IC50 (µg/mL)
Report the figure in µg/mL without appending any unit label.

9D12.1H4 (antibody, IgG1, V domains shown) VH: EVQLQQSGPELVKPGASVRMSCKASGNTVIDYNIHWVKQSQGKSLEWIGYINPNSGGTGYNEKFKDKATLTINKSSSTAHMDLRSLTSEDSAVYYCTRFDFWGQGTTLTVSS VL: DVLMTQTPLSLPVSLGDQASISCRSTQSIVPVNGNTHLEWYLHKPGQSPKLLIYKVSNRFSGVPDRFSGSGSGTDFTLKISRVEAEDLGVYYCFQASHVPWTFGGGTKLEIK: 6.6

Entry 2B12.1E1 (antibody, IgG2c, V domains shown) VH: EVQLQQSGPELVKPGASVKISCKASGYTFTDYYMNWVKQSHGKSLEWIGDINPNNGNTNYNQKFKGKATLTVDKSSSTAYMEFRSLTSEDSAVYYCAGLGRIFDYWGQGTTLTVSS VL: ENVLTQSPAIMSASPGEKVTMTCRASSSVSSTFLHWYQQKSGASPKLWIYSTSDLASGVPARFSGSGSGTSYSLTISSVEAEDAATYYCQQYSGYPWTFGGGTKLEIK , FLIPR IC50 reported as 40.9
